Recorded inhibition for the following compounds
# TARGET_DESC: Cytochrome P450 2C9 (Homo sapiens) (UniProt P11712)
# Sequence (P11712 whole entry, looked up): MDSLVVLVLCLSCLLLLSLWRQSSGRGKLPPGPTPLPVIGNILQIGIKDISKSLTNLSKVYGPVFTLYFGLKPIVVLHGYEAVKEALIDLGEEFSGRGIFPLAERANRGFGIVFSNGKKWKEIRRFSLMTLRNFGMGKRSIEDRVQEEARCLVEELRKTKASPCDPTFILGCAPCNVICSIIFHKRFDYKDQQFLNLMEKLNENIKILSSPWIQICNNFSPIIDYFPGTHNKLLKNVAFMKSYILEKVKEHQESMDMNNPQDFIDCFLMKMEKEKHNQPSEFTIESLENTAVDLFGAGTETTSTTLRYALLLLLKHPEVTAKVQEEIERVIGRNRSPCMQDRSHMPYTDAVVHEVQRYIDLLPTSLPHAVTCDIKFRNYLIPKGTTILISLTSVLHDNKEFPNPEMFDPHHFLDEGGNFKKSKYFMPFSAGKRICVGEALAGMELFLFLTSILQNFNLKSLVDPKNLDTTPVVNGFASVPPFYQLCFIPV
# ASSAY_EXPLANATION: blockers of cytochrome P450 2C9 activity – biochemical, luminescence, ADME assay, primary screen (AID 777)
# RUN_PARAMETERS: CYP2C9 Supersomes, luciferin-H conversion, at 5 µM, stronger effect = higher value
Out of some 96,000 compounds screened, about 19,000 (20%) were called active. Only a sample is shown.
Your answer is read as %, so omit the unit and give the number.

The following compounds have reported results that may help.
COMPOUND	TARGET_DESC	inhibition (%)
CN(C)c1ccc(/C=C2\NC(=S)N(Cc3ccccc3)C2=O)cc1	Cytochrome P450 2C9 (Homo sapiens) (UniProt P11712)	66.2
O=C(NC1CC2CCCC(C1)N2C(=O)N1CCCCC1)C1CCCCC1 (configuration not stated)	Cytochrome P450 2C9 (Homo sapiens) (UniProt P11712)	25.5
O=c1cccc(-c2ccc(Br)cc2)o1	Cytochrome P450 2C9 (Homo sapiens) (UniProt P11712)	-19.8
COc1ccc(CC(=O)n2nc(-c3cccnc3)nc2N)cc1	Cytochrome P450 2C9 (Homo sapiens) (UniProt P11712)	9
CNC(=O)CN1C(=O)c2ccccc2S1(=O)=O	Cytochrome P450 2C9 (Homo sapiens) (UniProt P11712)	-5.9

# inhibition (compound: O=C(Cc1ccc(-n2c(=O)[nH]c3ccccc3c2=O)cc1)N1CCN(c2cccc(Cl)c2)CC1 ) is 57.5

Notebook: COc1cc(OC)cc(-c2nc3nc(C)c(CCC(=O)NCc4ccco4)c(C)n3n2)c1 , inhibition read as 15.8

* * *

Recorded inhibition for the following molecules
# TARGET_DESC: Cytochrome P450 2C9 (Homo sapiens) (UniProt P11712)
# ASSAY_EXPLANATION: blockers of cytochrome P450 2C9 activity – biochemical, luminescence, ADME assay, primary screen (AID 777)
# RUN_PARAMETERS: CYP2C9 Supersomes, luciferin-H conversion, at 5 µM, stronger effect = higher value
The campaign covered roughly 96,000 compounds. About 19,000 (20%) were called active. A selection follows.
Write the number in % without appending the unit.

MOLECULE	TARGET_DESC	SCALE_UNIT	inhibition
Cc1cc(=O)oc(C)c1C(=O)Nc1cnc2ccccc2c1	Cytochrome P450 2C9 (Homo sapiens) (UniProt P11712)	%	10.5

inhibition for CCCCOC(=O)Cn1c(=N)n(CCN(CC)CC)c2ccccc21 is -37.7

Value of inhibition reported for the molecule CC1CCC(NS(=O)(=O)c2ccc3c(c2)n(C)c(=O)c(=O)n3C)CC1 (stereo not given) is 8.5

Looking up Cc1nn(C)c(C)c1S(=O)(=O)N1CCc2ccccc21 , I found its inhibition recorded as -33.4

// recorded inhibition for COc1ccccc1CNC(=O)C1CCN(c2nc3ccccc3o2)CC1 : -3.9

* * *

# TARGET_DESC: Cytochrome P450 2C9 (Homo sapiens) (UniProt P11712)
# ASSAY_EXPLANATION: blockers of cytochrome P450 2C9 activity – biochemical, luminescence, ADME assay, primary screen (AID 777)
# RUN_PARAMETERS: CYP2C9 Supersomes, luciferin-H conversion, at 5 µM, stronger effect = higher value
Screen size: about 96,000 compounds; about 19,000 (20%) were called active. The list is a sample of the results.
Catalogue of inhibition readings, one per entry.
Report the value in % with no unit label.

Below, 5 compounds whose answers are already recorded.
COMPOUND	inhibition / %
Cc1nnc(SCC(=O)NCc2ccccc2)s1	-1
CCOC(=O)[C@H]1CCC[C@@H](NS(=O)(=O)c2ccc(NC(C)=O)cc2)C1	80.1
O=C(c1ccc(S(=O)(=O)N2CCOCC2)cc1)N1CCN(c2ccccc2)CC1	-4.5
O=C(c1c(Cl)nc2sccn12)N1CCCc2ccccc21	28.1
Oc1ccccc1/C=N/n1c(-c2cccs2)n[nH]c1=S	0.5

The recorded inhibition for entry CCOC(=O)CN(Cc1ccc(OC)c(OC)c1)S(=O)(=O)c1ccc(OC)cc1 equals 64

Just so you know, measured inhibition for Cc1[nH]n(-c2ccccc2)c(=O)c1CCOC(=O)c1ccc(C(F)(F)F)cc1 came out at -11.8

inhibition for C=CCn1c(N)cc(=O)nc1SCC(=O)Nc1cccc2ccccc12 is -3.7

So, Cc1cnc(NC(=O)CSc2nnc(C)s2)s1 ? Its inhibition was 8.4

Lab note: measured inhibition of O=C1CSC(=O)N1CCOCCN1C(=O)CSC1=O was 7.2

GET /value?item= Cc1nn(C)cc1/C=C1\CCC/C(=C\c2cn(C)nc2C)C1=O &field=inhibition returns -46.5

Given item CCOC(=O)/C(=C\c1ccc([N+](=O)[O-])cc1)C(=O)c1cc(C(C)=O)c(Nc2ccccc2)s1 , the value recorded as its inhibition is 76.2

inhibition measured on C=CCn1c(SCC(=O)Nc2nc3ccccc3s2)nnc1-c1ccccc1O = 56.6

Entry under test: Cc1ccc(C(=O)N/N=C/c2sc(=O)n(Cc3cccc(C(=O)O)c3)c2Cl)cc1 . Its inhibition was 12.3

Sure, the documented inhibition for CCC(=O)Nc1ccc(C(=O)Nc2cc(C)on2)cc1 is 8.5

The reported value for CCOC(=O)c1cc2occc2n1CC(=O)N1CCN(C(=O)c2ccco2)CC1 in terms of inhibition is 3.7

Form field inhibition, entry CCn1c(SCC(=O)Nc2cccc(F)c2)nnc1-c1cc2cc(Br)ccc2o1 : 36

The recorded inhibition for entry N#CCSc1nc2ccccc2c(=O)n1-c1ccccc1 equals 30.4

Short answer for Cc1ccc(/C=N/NC(=O)C(NC(=O)c2ccccc2)c2n[nH]c(=O)c3ccccc23)cc1 (configuration not stated) : inhibition was 56.5

Lookup result for CC(C)NS(=O)(=O)c1ccc(NC(=O)C2CCCCC2)cc1 ; measured inhibition: 4.3

For this compound ( O=C(CCN1c2ccccc2Sc2ccccc21)Nc1ccccc1 ), measured inhibition is 95.4

So for O=[N+]([O-])c1ccccc1OCCCCN1CCCCC1 , the logged inhibition turned out to be -4

The recorded inhibition for entry O=C(NCCc1ccccc1)c1ccc(OCCOc2ccccc2)cc1 equals -10.5

Entry source: PubChem BioAssay AID777
